Data provenance is ChEMBL document CHEMBL1201862.

test system: SK-MEL-5; test: NCI tumour cell line growth inhibition, 48 h
Calls of active or inactive are those of the source. Rule as the data show it: active = GI50 up to about 1.1 µM and inactive = higher.
Outcome field: choose from true (1) for active, false (0) for inactive

Known results for molecules:
// query // return assay outcome for C[N+](C)(C)CCOC(=O)/C=C/c1c[nH]cn1
// result false (0)

// query State the result this test recorded for OC(c1cc2ccc(C(F)(F)F)cc2c2cc(C(F)(F)F)ccc12)C1CCCCN1 (stereo not drawn) .
// result false (0)

// query Answer briefly: the call reported for OCc1ccccc1O[C@H]1O[C@H](CO)[C@@H](O)[C@H](O)[C@H]1O in this assay.
// result false (0)

// query Recorded test outcome, item CCC1(O)C(=O)OCc2c1cc1n(c2=O)Cc2cc3cc(N)ccc3nc2-1 (stereo not drawn)
// result true (1)

// query Hey, what did the test say about CC[C@@H]1CC[C@@H]2[C@H](CC[C@]3(C)[C@@H](O)CC[C@@H]23)[C@H]1CO ?
// result false (0)

// query Tell me the recorded outcome of this test for CCOP(=O)(/C=C/n1cnc2c(=O)n(C(C)=O)c(N)nc21)OCC .
// result false (0)

// query Lab log entry: CN(C)C(=O)Oc1c(Br)cc(Br)cc1C(=O)OCc1ccccc1 — outcome as called in the assay?
// result false (0)

// query GET /call?item= Cc1c(C)c(C)c(-n2c(=O)n(C)c(=O)n2-n2c(=O)n(C)c(=O)n2-c2c(C)c(C)c(C)c(C)c2C)c(C)c1C returns the recorded outcome of this test.
// result false (0)

Next, consider the following molecule.
// query So what was the verdict on COc1cc(OC)cc(Oc2nc3ccccc3nc2C(=O)O)c1 in this test?
// result false (0)

====

tested on: SK-MEL-28; test: NCI tumour cell line growth inhibition, 48 h
The source made the active and inactive calls. Rule as the data show it: active = GI50 up to about 1.1 µM and inactive = higher.
assay_metric: GI50

Would you please look over these solved cases?
The molecule listed as C[C@]12C(=O)OC[C@H](c3ccccc3)N1C(=O)N(Cc1ccccc1)[C@@H]2CO has a reported GI50 of > 100 µM (inactive)

Form field GI50, entry O=C(Nc1ccc([N+](=O)[O-])cc1)C(=O)C(C(=O)c1ccccc1F)C1OC(=O)c2ccccc21 (stereo not given) : 46.9 µM (inactive)

CC1=C(C(=O)Nc2ccccc2C)C(c2ccccc2O)C(C(=O)Nc2ccccc2C)=C(C)N1 has a reported GI50 of 28 µM (inactive)

So, CCOC(=O)c1cn2c([nH]c3ccccc32)c(C#N)c1=O ? Its GI50 was > 100 µM (inactive)

So, C/C(CC(=O)Nc1ccc(C)c(C)c1)=N\NC(N)=S ? Its GI50 was > 100 µM (inactive)

So, CCC1c2[nH]c3ccccc3c2C[C@H]2C(=O)NC(Cc3ccccc3)C(=O)N12 (stereo not given in full) ? Its GI50 was 40 µM (inactive)

Continuing:
What the record says about O=[As](O)(O)c1ccc(/N=N/c2ccc([As](=O)(O)O)cc2)cc1 : GI50 is > 100 µM (inactive)

Please fill in: GI50 reported for COC1(OC)c2no[n+]([O-])c2CCC1O (stereo not given) = > 100 µM (inactive)

Looking up Nc1ncnc2c1ncn2C1C=CC(COS(N)(=O)=O)C1 (stereo not given) , I see its GI50 listed as 20.5 µM (inactive)

Sample COc1ccccc1NC(=S)NNC(=O)c1cc(-c2ccccc2)nc2ccccc12 ; GI50 observed: 10.4 µM (inactive)

====

system: Malme-3M; assay: NCI tumour cell line growth inhibition, 48 h
Activity calls are given as the source filed them. Cut-off read from the data, not from the text of the source: active = GI50 up to about 1.1 µM and inactive = higher.
Log the outcome using a class from YES for active, NO for inactive

// query Name the outcome recorded for CC1(C)CN(CC(=O)O)CC(Cc2ccc(OCC(=O)O)cc2)N(CC(=O)O)CC(C)(C)SS1 (stereo unspecified) in the assay.
// result NO

// query For this compound, state the assay outcome: CN(/C(=N\O)c1ccccc1)c1ccccc1
// result NO

// query Dear all, I need the recorded test outcome for COc1c(N2CCCCC2)c2c(=O)c3ccccc3oc2c2c3ccccc3n(C)c12 , thank you.
// result NO

// query So what was the verdict on Cc1nc2c(=S)n(C)ncc2[nH]1 in this test?
// result YES

// query Please let me know the test result on file for CC(c1ccccc1)C(O)S(=O)(=O)O (stereo unspecified) .
// result NO

Now examine the next entry.
// query # outcome recorded in this test, key = C/C(=C\Cc1cc(O)ccc1O)CCc1c(C)c(O)c(O)c(C=O)c1C [PANICEIN C]
// result NO

====

test system: HL-60; assay: NCI tumour cell line growth inhibition, 48 h
Active and inactive are the calls of the source. Cut-off read from the data, not from the text of the source: active = GI50 up to about 1.1 µM and inactive = higher.
Please answer using one outcome listed in 1 for active, -1 for inactive

A selection of reference data follows.
// query Hi, do you know how CCCC(=O)N[C@@H](Cc1cc(I)c(O)c(I)c1)C(=O)NCCCNCCCCNCCCNC(=O)[C@@H](N)CCCN=C(N)N came out in this test?
// result -1

// query Name the outcome recorded for O=C1C(Nc2ccc(S(=O)(=O)Nc3cnc4ccccc4n3)cc2)=C/C(=N\c2ccc(S(=O)(=O)Nc3cnc4ccccc4n3)cc2)c2ccccc21 in the assay.
// result -1

// query What was the test verdict on COc1cc(/C=C2\[C@H]3c4c(c(OC)c(C)c(OC)c4OC)C[C@@H](C(=O)N2Cc2ccccc2)N3C(=O)OC(C)C)c(OC)c(C)c1OC ?
// result -1

Next, consider the following compound.
// query Record lookup: outcome of this test for CC(C)CCCCCCCCCCCCC(=O)NCC(=O)NC1C(C)OC(Nc2[nH]cnc3ncnc2-3)C(O)C1O (centres undefined) ?
// result 1

====

Recorded measurements of GI50, one per entry
tested on: K562; assay: NCI tumour cell line growth inhibition, 48 h
Calls of active or inactive are those of the source. No stated cut-off is given here; in the data, active = GI50 up to about 1.1 µM and inactive = higher.

// field: GI50; key: CN(C)CC[N+]1=Nc2cccc3cccc(c23)N1 ; value = 26.4 µM (inactive)

// sample CC1=NN(c2cccc(Cl)c2)C2(SCC(=O)N2c2nc3ccccc3s2)C1=CC=Cc1ccccc1 (stereo unspecified) , its GI50 was 13.3 µM (inactive)

Continuing:
Item: CS(=O)(=O)NNS(=O)(=O)c1ccccc1 | GI50: > 100 µM (inactive)

GI50 reported for this compound Cc1[nH]c2ccccc2c1C1Cc2ccccc2N1C(=O)/C=C/C=C/c1ccccc1 (stereo unspecified) : > 100 µM (inactive)

// field: GI50; key: NC1CC(=O)c2c1sc(Cl)c2Cl (stereo unspecified) ; value = > 100 µM (inactive)

Kindly note the recorded GI50 for CC(CC(=O)Nc1ccc(NC(=O)CC(C)/N=N\C(N)=O)cc1)/N=N\C(N)=O (stereo unspecified) , which is > 100 µM (inactive)

Entry CCNC(=O)c1cc(Cl)ccc1NC(=O)C12CC3CC(CC(C3)C1)C2 ; GI50 = 28.2 µM (inactive)

====

system: SK-MEL-28; experiment: NCI tumour cell line growth inhibition, 48 h
The source made the active and inactive calls. Rule as the data show it: active = GI50 up to about 1.1 µM and inactive = higher.
Respond using exactly one of the listed classes: True for active, False for inactive

Use the examples below as a reference point.
// query I would be grateful if you could indicate the recorded call for O=C1C(Nc2ccc(S(=O)(=O)Nc3cnc4ccccc4n3)cc2)=C/C(=N\c2ccc(S(=O)(=O)Nc3cnc4ccccc4n3)cc2)c2ccccc21 .
// result False

// query So what was the verdict on Nc1ncnc2c1N=CN(Oc1ccccc1)N2 in this test?
// result False

// query GET /call?item= Cc1[nH]c2ccccc2c1C1Cc2ccccc2N1C(=O)/C=C/C=C/c1ccccc1 (stereo not given) returns the recorded outcome of this test.
// result False

// query Which result was noted for this molecule in the test: COc1ccc2nc3c4c(nccc4c2c1)-c1ncccc1C3=O
// result True

// query Hello, I am checking results. What call was entered for CCCCC(=O)Oc1ccc2c(C)cc(=O)oc2c1 ?
// result False

// query What classification did NCCCN(CCCCN(CCCN)Cc1ccc2ccccc2c1)Cc1ccc2ccccc2c1 end up with in this test?
// result False

// query Given OC(C1=C/C(=C\c2ccncc2)c2ccccc21)c1ccncc1 (stereo not given) , state the outcome it received in this test.
// result False

// query # lookup: test call for Cc1[nH]c(=O)nc(N(CCO)/N=C/c2ccccc2Cl)c1C(=O)Nc1cc(Cl)cc(Cl)c1
// result False

Others:
// query Which outcome was assigned to c1ccc2c(OCCSCCCCCCCCCCSCCOc3cccc4ccccc34)cccc2c1 in this test?
// result False

// query Outcome? CCOC(=O)C1C(=O)CC(C)(O)C(C(=O)OCC)C1c1ccc(N(C)C)cc1 (stereo not given)
// result False

====

tested on: SN12C; test: NCI tumour cell line growth inhibition, 48 h
Calls of active or inactive are those of the source. Cut-off read from the data, not from the text of the source: active = GI50 up to about 1.1 µM and inactive = higher.
assay_metric: GI50

Sample answers from the record:
Note to self: GI50 of CSC12c3cc(C)n(-c4ccccc4)c3CC(C)(C)CN1C(=O)C2Oc1ccccc1 (stereo unspecified) with SN12C was > 100 µM (inactive)

Fill in: SN12C GI50 for COc1cccc(C2c3cc4c(cc3OC(NNS(=O)(=O)c3ccc(C)cc3)C2C)OCO4)c1O (stereo unspecified) = 37 µM (inactive)

Test item O=C(CC1(O)C(=O)Nc2ccc([N+](=O)[O-])cc21)c1ccncc1 (stereo unspecified) ; SN12C; reported GI50 was 43.6 µM (inactive)

Nc1nc2sc3ccccc3c(=O)n2n1 on SN12C gives GI50 = > 100 µM (inactive)

Query O=C(CCc1cc(-c2ccccc2)[nH]c(=S)n1)Nc1ccccc1[N+](=O)[O-] on SN12C; GI50 returned: > 100 µM (inactive)

Value (GI50, SN12C) for record c1ccc(NCn2cnc3ccccc32)cc1 = > 100 µM (inactive)

Here's the next entry for you.
Bench note, SN12C: entry CC(C)(C)OC(=O)NC(CS(=O)(=O)O)C(=O)O (stereo unspecified) , its GI50 = > 100 µM (inactive)
